Overview of reported cleaved RNA product abundance across a group of sequences:
Test system: Bacillus subtilis
experiment: cleaved RNA product abundance (RNA/gDNA barcode ratio) relative to median wild-type variant (ratio to wild type); higher = more accumulation of the downstream cleavage product
details: experiment (reporter, strain, medium): exp 8a: truncated aprE reporter, strain BJT201 with 2% xylose (RNase J1 expressed); cleavage site: glnRA (positions -5 to +31 mutated)
// no unit, no text: just the number

Look over these answered cases.
In [3]: df
Out[3]:
                                        seq        measured_on                  readout_label  reported
0  CGACATGTCCCGCTTCTTTCATTAATCCGTTAGCAAATATTTTGCTATATACATTTACCTTTTAAGAGGAGGAAT  Bacillus subtilis  cleaved RNA product abundance     0.843
1  CGACATGTCCCGCTTCTTTCATTAATCAGTTAGCAACTGTTTTGCTATATATATTTACCTTTTAAGAGGAGGAAT  Bacillus subtilis  cleaved RNA product abundance     0.759
2  CGACATGTCCCGCTTCTTTCATTAACCCGTTAGAAACTGTTTTGCTATATACATTTACCTTTTAAGAGGAGGAAT  Bacillus subtilis  cleaved RNA product abundance     0.187
3  CGACATGTCCCGCTTCTTTCATTAATCCGTTAGCAACCGTTTTGCAATATACATTTACCTTTTAAGAGGAGGAAT  Bacillus subtilis  cleaved RNA product abundance     0.344
4  CGACATGTCCCGCTTCTTTCATTAATCCGTTAGCAACTGTTTTGCTATTTACATGTACCTTTTAAGAGGAGGAAT  Bacillus subtilis  cleaved RNA product abundance    0.0435

Input: So what's the measured cleaved RNA product abundance for this one? CGACATGTCCCGCTTCTTTCATTAATCCGTTAGCAACTGTTTTGATATATACATTTTCCTTTTAAGAGGAGGAAT
Output: 0.376

Input: For CGACATGTCCCGCTTCTTTCATTAATCCATTAGCAACTGTTTTGCTACATACATTTACCTTTTAAGAGGAGGAAT , what is its reported cleaved RNA product abundance?
Output: 0.772

----------
Tested on: Bacillus subtilis
experiment: cleaved RNA product abundance (RNA/gDNA barcode ratio) relative to median wild-type variant (ratio to wild type); higher = more accumulation of the downstream cleavage product
details: experiment (reporter, strain, medium): exp 4a: truncated aprE reporter, strain BJT201 with 2% xylose (RNase J1 expressed); cleavage site: cggR-gapA (positions -7 to +36 mutated)
readout-label: cleaved RNA product abundance
Could you respond with only the numeric value?

Completed entries (count: 10):
>>> df
                                        seq  reported
0  ACAGACGAAGGAGCCGCAAAAAAGTTATTAAGGGATGAATAATCCATCAATATAAATATCTCTCACTTATTTAAA     0.307
1  ACAGACGAAGGAGCCGCAAAAAAGTTATAAAGGGATGAATAATCCCTCAATATAAATATCTCTCACTTATTTAAA     0.581
2  ACAGACGAAGGAGCCGCAAAGAACTTATTAAGGGATGAATAATCCCACAATATAAATATCTCTCACTTATTTAAA     0.292
3  ACAGACGAAGGAGCCGCAAAGAAGTTATTATGGGGTGAATAATCCCTCAATATAAATATCTCTCACTTATTTAAA     0.285
4  ACAGACGAAGGAGCCGCAAAATAGTTATTAAGGGATGAATAATCCCTCAATATAAATATCTCTCACTTATTTAAA     0.703
5  ACAGACGAAGGAGCCGCATAGAAGTTATTAAGGTATGAATAATCCCTCAATATAAATATCTCTCACTTATTTAAA     0.159
6  ACAGACGAAGGAGCCGCAAAGAAGTTATTAAGGGATGAATAATGACTCAATATAAATATCTCTCACTTATTTAAA     0.142
7  ACAGACGAAGGAGCCGCAAAGAAGTTATTAAGTAATAAATAATCCCTCAATATAAATATCTCTCACTTATTTAAA    0.0519
8  ACAGACGAAGGAGCCGCAAAGAAATTATTAAGGGATGAATAATCGCTCAATATAAATATCTCTCACTTATTTAAA     0.101
9  ACAGACGAAGGAGCCGCAAAGAAGTTATTACGGGATGATTAATCCCTCAATATAAATATCTCTCACTTATTTAAA     0.204

Input: Form: Entry = ACAGACGAAGGAGCCGCAAAGAAGTTATTAAGGGATGAATAATCCCTCTATATAAATATCTCTCACTTATTTAAA | System = Bacillus subtilis | cleaved RNA product abundance = ____
Output: 0.489

Input: GET /values?readout=cleaved RNA product abundance&system=Bacillus subtilis&item= ACAGACGAAGGAGCCGCAAAGAAGTTATTAAGGGATGAATAATACCACAATATAAATATCTCTCACTTATTTAAA
Output: 0.0911

Input: What reported cleaved RNA product abundance corresponds to ACAGACGAAGGAGCCGCAAAGAAGTTATTAAGGGATGACTAATCCATCAATATAAATATCTCTCACTTATTTAAA on Bacillus subtilis?
Output: 0.154

----------
Tested on: Bacillus subtilis
experiment: cleaved RNA product abundance (RNA/gDNA barcode ratio) relative to median wild-type variant (ratio to wild type); higher = more accumulation of the downstream cleavage product
details: experiment (reporter, strain, medium): exp 4a: truncated aprE reporter, strain BJT201 with 2% xylose (RNase J1 expressed); cleavage site: cggR-gapA (positions -7 to +36 mutated)
readout-label: cleaved RNA product abundance
Just the number, please, no unit after it.

Recorded cleaved RNA product abundance, per entry:
                                        seq                  readout_label  reported
0  ACAGACGAAGGAGCCGCAAAGAAGTTTTTAAGGGATGAATAATCACTCAATATAAATATCTCTCACTTATTTAAA  cleaved RNA product abundance    0.0945
1  ACAGACGAAGGAGCCGCAAAGAAGTTATTAAAGGATGAATAATCCCTCAACATAAATATCTCTCACTTATTTAAA  cleaved RNA product abundance     0.265
2  ACAGACGAAGGAGCCGCAAAGAAGTTATTAAGGTATGAATAATCCCTCAATATAAATATCTCTCACTTATTTAAA  cleaved RNA product abundance     0.142
3  ACAGACGAAGGAGCCGCAAAGAAGTAATTAAGGGATGAATAATCGCTCAATATAAATATCTCTCACTTATTTAAA  cleaved RNA product abundance    0.0828
4  ACAGACGAAGGAGCCGCAAAGAAGTTATCAAGGGATGAATATTCCCTCAATATAAATATCTCTCACTTATTTAAA  cleaved RNA product abundance      0.27

// moving on: another record for cleaved RNA product abundance
Input: cleaved RNA product abundance for ACAGACGAAGGAGCCGCAAAAATGTTATTAAGGGATGAATAATCCCTCAATATAAATATCTCTCACTTATTTAAA ?
Output: 0.983

----------
Tested on: Bacillus subtilis
experiment: cleaved RNA product abundance (RNA/gDNA barcode ratio) relative to median wild-type variant (ratio to wild type); higher = more accumulation of the downstream cleavage product
details: experiment (reporter, strain, medium): exp 4a: truncated aprE reporter, strain BJT201 with 2% xylose (RNase J1 expressed); cleavage site: cggR-gapA (positions -7 to +36 mutated)
Form field: cleaved RNA product abundance (one value per entry).
I'd appreciate a reply containing only the number, no unit.

                                        seq                  readout_label  reported
0  ACAGACGAAGGAGCCGCAAAGAAGTTATTAAGGGATGAATAATCTCTGAATATAAATATCTCTCACTTATTTAAA  cleaved RNA product abundance     0.634
1  ACAGACGAAGGAGCCGCAAAGAATTTATTAAGAGATGAATAATCCCTCAATATAAATATCTCTCACTTATTTAAA  cleaved RNA product abundance     0.142
2  ACAGACGAAGGAGCCGCAAAGAACTTATTAAGGGAGGAATAATCCCTCAATATAAATATCTCTCACTTATTTAAA  cleaved RNA product abundance     0.315

The record that follows has no cleaved RNA product abundance shown yet.
Input: Record request: cleaved RNA product abundance value, item ACAGACGAAGGAGCCGCAAAGAAGTTATGAAGGGATGCATAATCCCTCAATATAAATATCTCTCACTTATTTAAA
Output: 0.542

----------
// values below are reported cleaved RNA product abundance
Test system: Bacillus subtilis
experiment: cleaved RNA product abundance (RNA/gDNA barcode ratio) relative to median wild-type variant (ratio to wild type); higher = more accumulation of the downstream cleavage product
details: experiment (reporter, strain, medium): exp 4a: truncated aprE reporter, strain BJT201 with 2% xylose (RNase J1 expressed); cleavage site: cggR-gapA (positions -7 to +36 mutated)
Quick one: just the number, no unit, thanks!

Input: Quick one: cleaved RNA product abundance of ACAGACGAAGGAGCCGCAAAGAAGTTTTTAAGGGATGAATAATCCATCAATATAAATATCTCTCACTTATTTAAA ?
Output: 0.189
